- testedTarget: Vascular endothelial growth factor receptor 2 (Homo sapiens, UniProt P35968)
- Sequence (P35968 whole entry, the tested form may be a part): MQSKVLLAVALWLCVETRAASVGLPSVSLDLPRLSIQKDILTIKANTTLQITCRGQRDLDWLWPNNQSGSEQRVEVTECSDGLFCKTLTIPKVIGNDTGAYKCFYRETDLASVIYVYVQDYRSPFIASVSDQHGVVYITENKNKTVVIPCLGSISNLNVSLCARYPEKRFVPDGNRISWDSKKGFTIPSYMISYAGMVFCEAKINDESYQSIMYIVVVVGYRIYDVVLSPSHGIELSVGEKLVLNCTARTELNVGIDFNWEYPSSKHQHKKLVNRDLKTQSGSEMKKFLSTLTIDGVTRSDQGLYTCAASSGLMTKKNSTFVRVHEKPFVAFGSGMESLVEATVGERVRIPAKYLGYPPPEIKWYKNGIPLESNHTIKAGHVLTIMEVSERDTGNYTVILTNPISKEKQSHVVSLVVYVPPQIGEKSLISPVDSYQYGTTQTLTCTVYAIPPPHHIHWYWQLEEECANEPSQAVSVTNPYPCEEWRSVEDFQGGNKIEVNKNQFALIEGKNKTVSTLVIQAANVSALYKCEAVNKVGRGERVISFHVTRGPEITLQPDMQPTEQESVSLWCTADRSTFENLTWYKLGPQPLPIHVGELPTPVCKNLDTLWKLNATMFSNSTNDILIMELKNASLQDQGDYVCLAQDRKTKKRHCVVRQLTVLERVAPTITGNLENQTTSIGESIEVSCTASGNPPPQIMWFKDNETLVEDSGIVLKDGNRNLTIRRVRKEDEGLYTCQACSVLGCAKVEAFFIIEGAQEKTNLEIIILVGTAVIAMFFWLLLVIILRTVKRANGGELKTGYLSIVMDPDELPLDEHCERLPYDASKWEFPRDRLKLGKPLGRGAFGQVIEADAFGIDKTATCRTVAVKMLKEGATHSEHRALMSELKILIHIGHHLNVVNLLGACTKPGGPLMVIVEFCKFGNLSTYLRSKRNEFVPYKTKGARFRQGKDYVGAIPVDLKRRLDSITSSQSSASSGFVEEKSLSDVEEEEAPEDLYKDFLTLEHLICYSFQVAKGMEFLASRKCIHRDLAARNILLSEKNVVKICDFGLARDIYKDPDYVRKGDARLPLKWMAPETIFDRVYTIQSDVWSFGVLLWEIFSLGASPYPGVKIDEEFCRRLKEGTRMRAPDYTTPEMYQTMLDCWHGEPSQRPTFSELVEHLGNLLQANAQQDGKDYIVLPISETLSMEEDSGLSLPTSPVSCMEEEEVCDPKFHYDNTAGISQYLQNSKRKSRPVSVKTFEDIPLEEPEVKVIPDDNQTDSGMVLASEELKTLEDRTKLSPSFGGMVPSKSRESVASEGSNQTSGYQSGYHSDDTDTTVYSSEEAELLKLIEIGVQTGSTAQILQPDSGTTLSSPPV
- assayName: Inhibition of GST-fused recombinant VEGFR2 expressed in baculovirus infected Sf9 cells after 30 mins by DELFIA assay
measureName: IC50 (nM)

INSERT INTO assay_data (substancesmiles, testedtarget, unitabbrev, assayvalue) VALUES
  ('CCn1cnc(-c2cc3nccc(Oc4ccc(NC(=O)CC(=O)NC5CCCCC5)cc4F)c3s2)c1', 'Vascular endothelial growth factor receptor 2 (Homo sapiens, UniProt P35968)', 'nM', 10),
  ('CCn1cnc(-c2cc3nccc(Oc4ccc(NC(=O)CC(=O)Nc5cccc(F)c5)cc4F)c3s2)c1', 'Vascular endothelial growth factor receptor 2 (Homo sapiens, UniProt P35968)', 'nM', 10);
